biological target: HLA-A*02:01 (Homo sapiens, UniProt P04439, D140Y/D185E/D98H/E176V/E277Q/G131W/G231S/I119V/I121R/I166T/I218V/L300P/L318F/N151K/N90K/P208A/P217A/Q86G/Q94H/R138H/R169H/T345S); experiment: MHC binding assay: UV-ligand exchange with beta2m ELISA (exchange yield); conditions: binding to HLA-A*02:01, β2m ELISA
Metric: Peptide exchange (MHC class I binding score, peptide exchange yield)

>  <Substance>
66 (FLDENIGGVAV; listed as Homo sapiens) [compound 66]

>  <Reported Value>
“+++” (≥50 = +++)

$$$$
>  <Substance>
308 (SQYSGQLHEV; listed as Homo sapiens) [compound 308]

>  <Reported Value>
“+++” (≥50 = +++)

$$$$
>  <Substance>
262 (LLWGDLIWL; listed as Homo sapiens) [compound 262]

>  <Reported Value>
“+++” (≥50 = +++)

$$$$

---

biological target: HLA-A*02:01 (Homo sapiens, UniProt P04439, D140Y/D185E/D98H/E176V/E277Q/G131W/G231S/I119V/I121R/I166T/I218V/L300P/L318F/N151K/N90K/P208A/P217A/Q86G/Q94H/R138H/R169H/T345S); test: MHC binding assay: UV-ligand exchange with beta2m ELISA (exchange yield); settings: binding to HLA-A*02:01, β2m ELISA
Metric: Peptide exchange (MHC class I binding score, peptide exchange yield)

>  <Substance>
317 (SLAALVVHV; listed as Homo sapiens) [compound 317]

>  <Reported Value>
“+++” (≥50 = +++)

$$$$
>  <Substance>
225 (SLLKVLPAL; listed as Homo sapiens) [compound 225]

>  <Reported Value>
“+++” (≥50 = +++)

$$$$
>  <Substance>
26 (ALLELAEEL; listed as Homo sapiens) [compound 26]

>  <Reported Value>
“+++” (≥50 = +++)

$$$$
>  <Substance>
350 (ALLDVTHSELTV; listed as Homo sapiens) [compound 350]

>  <Reported Value>
“+++” (≥50 = +++)

$$$$
>  <Substance>
325 (FIMPATVADATAV; listed as Homo sapiens) [compound 325]

>  <Reported Value>
“+++” (≥50 = +++)

$$$$
>  <Substance>
575 (YLISQVEGHQV; listed as Homo sapiens) [compound 575]

>  <Reported Value>
“+++” (≥50 = +++)

$$$$
>  <Substance>
232 (ALLEAQDVELYL; listed as Homo sapiens) [compound 232]

>  <Reported Value>
“++” (≥20% = ++)

$$$$
>  <Substance>
608 (SLLSVSHAL; listed as Homo sapiens) [compound 608]

>  <Reported Value>
“+++” (≥50 = +++)

$$$$

Okay, now this substance:
Lookup: Please give measured Peptide exchange (MHC class I binding score, peptide exchange yield) of the following entry: 400 (SLLTEQDLWTV; listed as Homo sapiens) [compound 400]
Found: “++” (≥20% = ++)

---

biological target: HLA-A*02:01 (Homo sapiens, UniProt P04439, D140Y/D185E/D98H/E176V/E277Q/G131W/G231S/I119V/I121R/I166T/I218V/L300P/L318F/N151K/N90K/P208A/P217A/Q86G/Q94H/R138H/R169H/T345S); assay: MHC binding assay: UV-ligand exchange with beta2m ELISA (exchange yield); settings: binding to HLA-A*02:01, β2m ELISA
Metric: Peptide exchange (MHC class I binding score, peptide exchange yield)

>  <Substance>
98 (LIIDQADIYL; listed as Homo sapiens) [compound 98]

>  <Reported Value>
“+++” (≥50 = +++)

$$$$
>  <Substance>
597 (KLLEGQVIQL; listed as Homo sapiens) [compound 597]

>  <Reported Value>
“+++” (≥50 = +++)

$$$$
>  <Substance>
92 (YLIPFTGIVGL; listed as Homo sapiens) [compound 92]

>  <Reported Value>
“++” (≥20% = ++)

$$$$
>  <Substance>
319 (SLEPQIQPV; listed as Homo sapiens) [compound 319]

>  <Reported Value>
“++” (≥20% = ++)

$$$$
>  <Substance>
80 (FLYDNLVESL; listed as Homo sapiens) [compound 80]

>  <Reported Value>
“++” (≥20% = ++)

$$$$

Lookup: Please give measured Peptide exchange (MHC class I binding score, peptide exchange yield) of the following entry: 507 (KLIDDQDISISL; listed as Homo sapiens) [compound 507]
Found: “+++” (≥50 = +++)

Lookup: Please give measured Peptide exchange (MHC class I binding score, peptide exchange yield) of the following entry: 595 (VLLSIYPRV; listed as Homo sapiens) [compound 595]
Found: “+++” (≥50 = +++)

Lookup: Please give measured Peptide exchange (MHC class I binding score, peptide exchange yield) of the following entry: 83 (ILAPTVMMI; listed as Homo sapiens) [compound 83]
Found: “+++” (≥50 = +++)
